Data origin: patent EP0233461B2

- Tested on: human basophils
- experiment notes: Inhibition of histamine release from immunologically stimulated human basophils
- Format: cell-based
- condition description: concentration causing 50% inhibition of histamine release, by linear regression; active if IC50 ≦ 48 µM; sulfate
readout: IC50

Below: 4 compounds and their reported IC50.
compound	test value
FC(F)(F)c1cccc(Nc2nccc(-c3ccncc3)n2)c1 [sulfate]	< 48000 nM
FC(F)(F)c1cccc(Nc2nccc(-c3ccccn3)n2)c1 [sulfate]	3000 nM
Cc1cnc(Nc2ccccc2)nc1-c1ccco1 [sulfate]	5000 nM
Cc1cccc(Nc2nccc(-c3cccs3)n2)c1 [sulfate]	3000 nM

Next compound, please.
IN: Provide IC50 value for the following compound: FC(F)(F)c1cccc(Nc2nccc(-c3cccnc3)n2)c1 [sulfate]
OUT: 2600 nM
